- Target of assay: HCK (Homo sapiens)
- Construct: purchased Reaction Biology Corp
- Sequence (P08631 whole entry): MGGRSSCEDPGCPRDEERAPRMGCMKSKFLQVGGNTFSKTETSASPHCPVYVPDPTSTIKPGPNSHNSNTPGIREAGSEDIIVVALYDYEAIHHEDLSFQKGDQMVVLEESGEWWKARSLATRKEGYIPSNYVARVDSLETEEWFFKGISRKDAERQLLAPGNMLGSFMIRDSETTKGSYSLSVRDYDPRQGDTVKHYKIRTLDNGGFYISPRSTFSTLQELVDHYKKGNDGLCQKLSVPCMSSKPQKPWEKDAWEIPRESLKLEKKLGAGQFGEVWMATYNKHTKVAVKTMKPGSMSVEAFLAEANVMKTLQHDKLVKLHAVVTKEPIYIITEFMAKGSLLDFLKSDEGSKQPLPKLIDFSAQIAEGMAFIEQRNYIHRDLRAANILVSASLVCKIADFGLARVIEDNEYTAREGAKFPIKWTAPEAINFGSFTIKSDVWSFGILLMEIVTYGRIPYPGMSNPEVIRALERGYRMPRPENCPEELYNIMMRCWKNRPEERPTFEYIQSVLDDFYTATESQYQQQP
- Measurement notes: P32 radioactive kinase assay (Reaction Biology Corp), HCK activity inhibition
- Assay type: biochemical
- Assay conditions: 50 μM compound; first of two replicate columns; remaining activity; read-out: % Enzyme Activity (relative to DMSO controls) HCK (50 μM)
Reported endpoint: remaining activity at 50 µM (%)
Numbers only, in %.

Record remaining activity at 50 µM for all entries; do not skip any.
1. CCOC(=O)c1cnc(NC(C#N)c2ccc(B(O)O)cc2)s1 (centres unmarked) [Example 11]
2. CCOC(=O)c1cnc(NC(=O)C2=Cc3cc(Cl)cc(Cl)c3OC2c2ccccc2)s1 (centres unmarked) [Example 15]
3. O=C(Nc1ncc(C(=O)O)s1)c1cc(Cl)cc(Cl)c1 [Example 21]
4. CCOC(=O)c1cnc(NC(C#N)c2ccc(B3OC(C)(C)C(C)(C)O3)cc2)s1 (centres unmarked) [Example 10]
5. CCOC(=O)c1cnc(NC(=O)c2cc(Cl)cc(Cl)c2)s1 [Example 20]

74.5
6.63
76.9
89.1
101

Hello, the source for this data is patent US12378235B2, in case you need it.
